Listed here are binders together with their documented D2H/BSA.
# measured.target: T1, human D2H transporter receptor domain, amino acid residues 387-685, His-tag fusion protein (human, UniProt Q07837 387-685)
# T1 construct: Expressed as His-tag fusion, purified under denaturing conditions, coated on plates; not shown: poly-histidine tag (pET His-tag) at the NH2-terminal end
# T1 sequence: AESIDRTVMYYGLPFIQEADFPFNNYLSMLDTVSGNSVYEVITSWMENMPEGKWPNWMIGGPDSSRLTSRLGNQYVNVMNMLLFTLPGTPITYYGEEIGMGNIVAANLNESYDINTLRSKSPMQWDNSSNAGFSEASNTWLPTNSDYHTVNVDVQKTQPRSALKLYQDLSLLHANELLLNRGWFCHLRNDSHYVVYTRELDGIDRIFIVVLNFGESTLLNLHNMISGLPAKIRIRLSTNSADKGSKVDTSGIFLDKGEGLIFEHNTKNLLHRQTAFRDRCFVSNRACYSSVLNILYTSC
# protocol: phage ELISA, OD on D2H over OD on BSA
observable: D2H/BSA (ratio)

| binder | reported |
| --- | --- |
| SESGRCRSVSRWMTTWQTQKGGCGSNVSRGSPLDPSHQTGHATT (pIII and flanks not included) [phage DAX15] | 4 |
| SKWSWSSRWGSPQDKVEKTRAGCGGSPSSTNCHPYTFAPPPQAG (pIII and flanks not included) [phage DAB24] | 4 |
| RWCGAELCNSVTKKFRPGWRDHANPSTHHRTPPPSQSSP (pIII and flanks not included) [phage DAB3] | 6 |
| SGFWEFSRGLWDGENRKSVRSGCGFRGSSAQGPCPVTPATIDKH (pIII and flanks not included) [phage DAB30] | 6 |
| RSSANNCEWKSDWMRRACIARYANSSGPARAVDTKAAP (pIII and flanks not included) [phage DAB18] | 5 |
| RWCGADDPCGASRWRGGNSLFGCGLRCSAAQSTPSGRIHSTSTS (pIII and flanks not included) [phage DAB7] | 8 |
| RMEDIKNSGWRDSCRWGDLRPGCGSRQWYPSNMRSSRDYPAGGH (pIII and flanks not included) [phage DAX24] | 5 |
| SHPWYRHWNHGDFSGSGQSRHTPPESPHPGRPNATI (pIII and flanks not included) [phage DAX27] | 4 |
| SKSGEGGDSSRGETGWARVRSHAMTAGRFRWYNQLPSDR (pIII and flanks not included) [phage DAB10] | 4 |
| REWRFAGPPLDLWAGPSLPSFNASSHPRALRTYWSQRPR (pIII and flanks not included) [phage DAX23] | 5 |

Data provenance is patent US7135457.
